Numbers sourced from PubChem BioAssay (Tox21).

- TARGET ENTITY: Aryl hydrocarbon receptor (Homo sapiens) (UniProt P35869)
- Sequence (P35869 whole entry, looked up): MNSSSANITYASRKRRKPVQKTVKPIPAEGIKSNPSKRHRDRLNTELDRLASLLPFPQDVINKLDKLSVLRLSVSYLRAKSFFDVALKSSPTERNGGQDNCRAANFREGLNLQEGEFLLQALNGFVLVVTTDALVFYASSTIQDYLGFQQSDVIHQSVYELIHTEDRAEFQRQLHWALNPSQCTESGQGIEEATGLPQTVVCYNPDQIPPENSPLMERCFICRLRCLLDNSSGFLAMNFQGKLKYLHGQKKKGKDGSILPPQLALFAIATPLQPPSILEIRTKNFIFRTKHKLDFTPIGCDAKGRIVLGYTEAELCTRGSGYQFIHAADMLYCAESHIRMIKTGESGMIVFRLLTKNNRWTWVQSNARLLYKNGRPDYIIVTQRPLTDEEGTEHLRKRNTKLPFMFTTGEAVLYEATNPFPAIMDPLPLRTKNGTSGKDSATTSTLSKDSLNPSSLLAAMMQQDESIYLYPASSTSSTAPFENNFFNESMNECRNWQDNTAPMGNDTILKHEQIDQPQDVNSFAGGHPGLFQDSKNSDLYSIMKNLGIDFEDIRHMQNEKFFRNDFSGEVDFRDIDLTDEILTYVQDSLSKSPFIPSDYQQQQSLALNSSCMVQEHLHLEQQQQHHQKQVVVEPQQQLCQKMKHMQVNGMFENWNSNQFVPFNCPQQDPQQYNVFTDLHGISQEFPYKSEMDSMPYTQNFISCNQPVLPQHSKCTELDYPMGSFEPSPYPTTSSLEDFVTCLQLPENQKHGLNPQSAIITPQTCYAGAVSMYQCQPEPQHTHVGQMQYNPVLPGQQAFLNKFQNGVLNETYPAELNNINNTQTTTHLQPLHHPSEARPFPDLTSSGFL
- METHOD DESCRIPTION: qHTS assay to identify small molecule that activate the aryl hydrocarbon receptor (AhR) signaling pathway (AID 743085);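 also: HG2L7.5c1 human HepG2 liver cells with stably integrated DRE-driven firefly reporter; nearly all actives have a fitted effect of over 15% in size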
- APPLIED CONDITIONS: HepG2 AhR-luc (HG2L7.5c1), luciferase, 24 h; series mostly up to 70.3 µM
- Source text: U.S. Tox21 Program National Center for Advancing Translational Sciences [NCATS] NIH Chemical Genomics Center [NCGC] U.S. Environmental Protection Agency [EPA] National Institutes of Environmental Health Sciences [NIEHS] National Toxicology Program [NTP] U.S. Food and Drug Administration [FDA] Tox21 Assay overview: The Aryl hydrocarbon Receptor (AhR), a member of the family of basic helix-loop-helix transcription factors, is crucial to adaptive responses to environmental changes. […]
Inconclusive results are not listed. The source made the active and inactive calls. Calls follow the shape of the dose curve; as a rule, active = well fitted activation curve with a large enough effect in the repeat runs; inconclusive = weak or mixed curves; inactive = no such curve, though single readings can be large or run the other way.
OBSERVABLE: outcome

Recorded results for 5 compounds are shown here.
CN(C)CCc1c[nH]c2ccccc12; inactive
O=P(Cl)(Cl)Cl; inactive
Cc1c([N+](=O)[O-])cc2c(c1[N+](=O)[O-])C(C)(C)CC2(C)C; inactive
[O]=[Cr](=[O])([OH])[O][Cr](=[O])(=[O])[OH]; inactive
Cc1ccc(C)c2ccccc12; inactive

Q: Give Aryl hydrocarbon receptor (Homo sapiens) (UniProt P35869) outcome for the following compound: Brc1cccc(-c2ccccc2)c1
Ans: inactive

Q: Give Aryl hydrocarbon receptor (Homo sapiens) (UniProt P35869) outcome for the following compound: CCc1cccc(C)c1N(C(=O)CCl)[C@@H](C)COC
Ans: inactive

Q: Give Aryl hydrocarbon receptor (Homo sapiens) (UniProt P35869) outcome for the following compound: CCOP(=O)(OCC)Oc1cc(C)nc(C(C)C)n1
Ans: inactive

Q: Give Aryl hydrocarbon receptor (Homo sapiens) (UniProt P35869) outcome for the following compound: CC(=O)[O-].CC(=O)[O-].O.O.O.[Pb+2]
Ans: inactive

Q: Give Aryl hydrocarbon receptor (Homo sapiens) (UniProt P35869) outcome for the following compound: CNC(=O)/C=C(\C)OP(=O)(OC)OC
Ans: inactive

Q: Give Aryl hydrocarbon receptor (Homo sapiens) (UniProt P35869) outcome for the following compound: C=CC(=O)[O][Sn]([CH2]CCC)([CH2]CCC)[CH2]CCC
Ans: inactive

Q: Give Aryl hydrocarbon receptor (Homo sapiens) (UniProt P35869) outcome for the following compound: CC(=O)C(Cl)C(=O)N(C)C (stereo not drawn)
Ans: inactive

Q: Give Aryl hydrocarbon receptor (Homo sapiens) (UniProt P35869) outcome for the following compound: CCCCc1ccccc1
Ans: inactive

---

- METHOD DESCRIPTION: A CellTox Green Cytotoxicity Assay to monitor cytotoxicity in HEK293 cells - 8 hour (AID 1224884); also: nearly all actives have a fitted effect of over 35% in size; also: potency is read from the fitted curve at half-maximal effect
- APPLIED CONDITIONS: CellTox Green fluorescence; series mostly up to 76.8 µM
Inconclusive results are not listed. Activity calls are given as the source filed them. Calls come from the whole dose curve; as a rule, active = well fitted activation curve with a large enough effect in the repeat runs; inconclusive = weak or mixed curves; inactive = flat fitted curve, though single readings scatter.
OBSERVABLE: Potency

Recorded results for 8 compounds are shown here.
Nc1nc(N)nc(Cl)n1; inactive
O=c1c2ccccc2c(=O)c2c1cc(Cl)c1[nH]c3c([nH]c12)c(Cl)cc1c(=O)c2ccccc2c(=O)c13; inactive
CCCCC/C=C\C/C=C\C/C=C\C/C=C\CCCC(=O)NCC(=O)O; inactive
CN1[C@@H]2CC[C@H]1CC(O)C2 (stereo not given in full); inactive
C#CCO; inactive
N#Cc1sc2c(=O)c3ccccc3c(=O)c=2sc1C#N; inactive
O=[N+]([O-])c1cc(C(F)(F)F)c(Cl)c([N+](=O)[O-])c1Nc1ncc(C(F)(F)F)cc1Cl; 49 µM (active)
O=[N+]([O-])c1ccc(CCl)cc1; inactive

--- query ---
Q: Dear colleague, please send me the reported Potency for N#CCCl when you can.
Ans: inactive
